# tgt: human RORγ (Homo sapiens)
# Construct: from Ser253 to Lys518 for human RORγ; expressed in transfected cells; host or cells: CHO cells (transient co-transfection with pG5-Luc)
# Sequence (P51449 253-518): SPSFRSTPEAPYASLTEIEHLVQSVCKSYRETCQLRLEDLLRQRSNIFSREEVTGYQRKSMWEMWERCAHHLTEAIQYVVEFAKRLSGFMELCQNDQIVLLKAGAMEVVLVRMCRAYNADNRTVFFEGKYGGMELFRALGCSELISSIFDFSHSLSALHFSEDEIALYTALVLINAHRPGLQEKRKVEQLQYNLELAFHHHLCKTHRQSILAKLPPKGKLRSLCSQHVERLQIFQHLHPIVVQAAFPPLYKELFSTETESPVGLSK
# experiment: In-vitro reporter gene assay for inhibitory activity against RORγ transcription, Test Method A (GAL4-hRORγ LBD / pG5-Luc in CHO cells)
# Assay type: cell-based
# experimental setup: luciferase reporter, 2 days
The compounds listed here are annotated with their EC50.
measure name: EC50 (µM)

• CC(C)(C)CCc1ccc(C23COC(COC(C)(C)C)C2=CN(CCC(=O)O)C(=O)N3)cc1Cl (single isomer, unassigned) [Example 22] = 16.2
• CC(C)(C)CCc1ccc([C@@]23CCC(C)(C)CC2=CN(CCC(=O)O)C(=O)N3)cc1Cl (single isomer, unassigned) = 0.014
• CC(C)(C)CCc1ccc(C23CCC(CCOCc4ccccc4)C2=CN(CCC(=O)O)C(=O)N3)cc1Cl (single isomer, unassigned) = 0.351
• CC1CC[C@@]2(c3ccc(CCC(C)(C)C)c(Cl)c3)NC(=O)N(CCC(=O)O)C=C2C1 (single isomer, unassigned) = 0.013

---

# tgt: mouse RORγ (Mus musculus, UniProt P51450)
# Construct: from Ile251 to Lys516 for mouse RORγ; expressed in transfected cells; host or cells: CHO cells (transient co-transfection with pG5-Luc)
# experiment: In-vitro reporter gene assay for inhibitory activity against RORγ transcription, Test Method A (GAL4-mRORγ LBD / pG5-Luc in CHO cells)
# Type: cell-based
# experimental setup: luciferase reporter, 2 days
measure name: EC50 (µM)

- COCC1CC[C@@]2(c3ccc(CCC(C)(C)C)c(Cl)c3)NC(=O)N(C34CC(C(=O)O)(C3)C4)C=C2C1 (single isomer, unassigned) [Example 85]: 0.073
- CC(C)(C)CCc1ccc(C23CCC(C)(C)C2=CN(CCC(=O)O)C(=O)N3)cc1Cl (single isomer, unassigned) [Example 3]: 0.013
- C[C@@H]1CC2=CN(C34CC(C(=O)O)(C3)C4)C(=O)NC2(c2ccc(CCC(C)(C)C)c(Cl)c2)CO1 (single isomer, unassigned) [Example 72]: 0.015

---

The compounds listed here are annotated with their EC50.
# tgt: mouse RORγ (Mus musculus, UniProt P51450)
# Construct: from Ile251 to Lys516 for mouse RORγ; expressed in transfected cells; host or cells: CHO cells (transient co-transfection with pG5-Luc)
# Sequence (P51450 251-516): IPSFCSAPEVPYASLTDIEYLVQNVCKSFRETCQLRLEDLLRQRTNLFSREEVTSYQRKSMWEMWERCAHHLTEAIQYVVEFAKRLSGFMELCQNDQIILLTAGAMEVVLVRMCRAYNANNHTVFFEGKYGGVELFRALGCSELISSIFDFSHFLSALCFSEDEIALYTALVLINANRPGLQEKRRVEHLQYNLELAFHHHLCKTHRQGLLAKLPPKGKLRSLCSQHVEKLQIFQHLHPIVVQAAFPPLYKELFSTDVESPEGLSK
# experiment: In-vitro reporter gene assay for inhibitory activity against RORγ transcription, Test Method A (GAL4-mRORγ LBD / pG5-Luc in CHO cells)
# Format: cell-based
# experimental setup: luciferase reporter, 2 days
measure name: EC50 (µM)

- COC1CC[C@@]2(c3ccc(CCC(C)(C)C)c(Cl)c3)NC(=O)N(C34CC(C(=O)O)(C3)C4)C=C2C1 (single isomer, unassigned): 0.031
- CC1CCC2(c3ccc(CCC(C)(C)C)c(Cl)c3)NC(=O)N(CCC(=O)O)C=C2C1 (single isomer, unassigned) [Example 66]: 0.03
- CC(C)(C)CCc1ccc(C23CCC(C)(C)C2=CN(c2ccc(C(=O)O)cc2)C(=O)N3)cc1Cl (single isomer, unassigned): 0.03
- CC(C)(C)CCc1ccc(C23CCC(F)(F)CC2=CN(CCC(=O)O)C(=O)N3)cc1Cl (racemic): 0.022
